STUDY TARGET: T1, EsCas13d, nuclease-dead (Eubacterium siraeum, UniProt B0MS50, R295A;H300A;R849A;H854A)
T1 sequence: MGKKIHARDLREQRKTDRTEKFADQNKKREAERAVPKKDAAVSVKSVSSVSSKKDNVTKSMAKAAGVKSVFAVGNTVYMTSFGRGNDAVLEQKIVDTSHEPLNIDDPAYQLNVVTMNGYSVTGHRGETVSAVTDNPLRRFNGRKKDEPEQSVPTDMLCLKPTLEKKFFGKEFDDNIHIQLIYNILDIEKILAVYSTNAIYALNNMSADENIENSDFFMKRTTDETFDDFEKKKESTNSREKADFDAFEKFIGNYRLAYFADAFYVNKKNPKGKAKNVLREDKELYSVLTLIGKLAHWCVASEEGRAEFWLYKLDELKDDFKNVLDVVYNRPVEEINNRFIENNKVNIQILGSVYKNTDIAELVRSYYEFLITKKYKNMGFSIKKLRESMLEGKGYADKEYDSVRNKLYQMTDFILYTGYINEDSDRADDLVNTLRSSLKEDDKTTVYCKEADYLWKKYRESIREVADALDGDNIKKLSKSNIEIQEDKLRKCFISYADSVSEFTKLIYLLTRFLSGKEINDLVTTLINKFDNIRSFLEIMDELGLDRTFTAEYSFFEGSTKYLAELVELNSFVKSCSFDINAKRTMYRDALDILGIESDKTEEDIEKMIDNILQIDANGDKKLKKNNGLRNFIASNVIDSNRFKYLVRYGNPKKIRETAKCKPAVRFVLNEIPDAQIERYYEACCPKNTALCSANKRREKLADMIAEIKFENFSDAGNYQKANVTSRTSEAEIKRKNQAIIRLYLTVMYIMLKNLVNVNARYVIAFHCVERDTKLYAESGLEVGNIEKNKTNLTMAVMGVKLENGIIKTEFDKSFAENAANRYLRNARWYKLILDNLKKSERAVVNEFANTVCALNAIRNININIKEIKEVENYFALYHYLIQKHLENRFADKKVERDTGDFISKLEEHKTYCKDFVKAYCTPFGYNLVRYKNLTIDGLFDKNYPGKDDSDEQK
PROTOCOL SUMMARY: crRNA (strand 1, pre-loaded); Mg2+; 40 mM Tris-HCl pH 7.5, 150 mM NaCl, 6 mM MgCl2, 1 mM DTT, 0.1% Tween-20, 0.2 mg/ml BSA; 25 C; 10 min per concentration, then washed
CONDITION PARAMETERS: tags: His6-TwinStrep-SUMO cleaved; N-terminal SNAP kept (SNAP-Surface 488); label: 3' end held by stalled T7 RNA polymerase
Recorded Kd by entry

BINDER	Kd, nM
target 3 insA 3' of 21,insC 3' of 4 (mixed) RNA 1: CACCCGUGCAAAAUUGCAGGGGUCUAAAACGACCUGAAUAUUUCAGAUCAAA RNA 2: GGGAAUGGAUCCACAUCUACGAAUUCGUUUUAUGAUCUGAAAUAUUCAGCGUCUGCAGAUCGGAAGAGCACACGU	50.5
target 3 A11G,U22A (mixed) RNA 1: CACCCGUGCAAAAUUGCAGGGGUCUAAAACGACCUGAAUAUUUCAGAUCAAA RNA 2: GGGAAUGGAUCCACAUCUACGAAUUCGUUAUUGAUCUGAAGUAUUCAGGUCUGCAGAUCGGAAGAGCACACGU	67
target 3 insC 3' of 22,insG 3' of 2 (mixed) RNA 1: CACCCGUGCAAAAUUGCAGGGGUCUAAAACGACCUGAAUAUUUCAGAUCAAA RNA 2: GGGAAUGGAUCCACAUCUACGAAUUCGUUUCUUGAUCUGAAAUAUUCAGGUGCUGCAGAUCGGAAGAGCACACGU	59
target 2 MT 5'PFS CUU 3'PFS CGG (mixed) RNA 1: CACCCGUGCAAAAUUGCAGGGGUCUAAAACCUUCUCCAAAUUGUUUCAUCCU RNA 2: GGGAAUGGAUCCACAUCUACGAAUUCCUUAGGAUGAAACAAUUUGGAGAAGCGGAGAUCGGAAGAGCACACGU	2.9
target 2 MT 5'PFS UAU 3'PFS CUG (mixed) RNA 1: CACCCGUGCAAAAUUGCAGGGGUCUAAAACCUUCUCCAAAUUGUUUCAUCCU RNA 2: GGGAAUGGAUCCACAUCUACGAAUUCUAUAGGAUGAAACAAUUUGGAGAAGCUGAGAUCGGAAGAGCACACGU	17.4
target 2 MT 5'PFS GGU 3'PFS AAG (mixed) RNA 1: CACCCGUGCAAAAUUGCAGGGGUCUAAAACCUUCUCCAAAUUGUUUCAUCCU RNA 2: GGGAAUGGAUCCACAUCUACGAAUUCGGUAGGAUGAAACAAUUUGGAGAAGAAGAGAUCGGAAGAGCACACGU	12.7
target 1 insU 3' of 20,insU 3' of 14 (mixed) RNA 1: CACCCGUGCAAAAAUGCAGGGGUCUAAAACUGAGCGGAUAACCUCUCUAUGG RNA 2: GGGAAUGGAUCCACAUCUACGAAUUCGUACCAUUAGAGAUGGUUAUCCGCUCACCGAGAUCGGAAGAGCACACGU	53
target 1 insA 3' of 6 (mixed) RNA 1: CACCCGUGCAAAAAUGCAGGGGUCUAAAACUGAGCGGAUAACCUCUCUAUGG RNA 2: GGGAAUGGAUCCACAUCUACGAAUUCGUACCAUAGAGAGGUUAUCCAGCUCACCGAGAUCGGAAGAGCACACGU	15
target 1 G5U,G13A (mixed) RNA 1: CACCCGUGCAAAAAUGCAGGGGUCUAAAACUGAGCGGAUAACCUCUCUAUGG RNA 2: GGGAAUGGAUCCACAUCUACGAAUUCGUACCAUAGAGAAGUUAUCCUCUCACCGAGAUCGGAAGAGCACACGU	11.5
target 1 C6G,G15U (mixed) RNA 1: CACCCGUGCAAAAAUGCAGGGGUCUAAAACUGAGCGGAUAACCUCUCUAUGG RNA 2: GGGAAUGGAUCCACAUCUACGAAUUCGUACCAUAGAUAGGUUAUCGGCUCACCGAGAUCGGAAGAGCACACGU	36
target 1 MT 5'PFS GGU 3'PFS CCU (mixed) RNA 1: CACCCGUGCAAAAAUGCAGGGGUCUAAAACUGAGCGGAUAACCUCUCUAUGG RNA 2: GGGAAUGGAUCCACAUCUACGAAUUCGGUCCAUAGAGAGGUUAUCCGCUCACCUAGAUCGGAAGAGCACACGU	75.5
target 1 insC 3' of 8,insG 3' of 7 (mixed) RNA 1: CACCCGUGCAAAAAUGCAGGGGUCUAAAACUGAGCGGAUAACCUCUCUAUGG RNA 2: GGGAAUGGAUCCACAUCUACGAAUUCGUACCAUAGAGAGGUUAUCCGCGCUCACCGAGAUCGGAAGAGCACACGU	10.3
target 1 insG 3' of 22,insG 3' of 4 (mixed) RNA 1: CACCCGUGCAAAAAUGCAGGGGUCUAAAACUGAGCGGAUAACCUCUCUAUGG RNA 2: GGGAAUGGAUCCACAUCUACGAAUUCGUACGCAUAGAGAGGUUAUCCGCGUCACCGAGAUCGGAAGAGCACACGU	26.2
target 1 MT 5'PFS CCA 3'PFS UGC (mixed) RNA 1: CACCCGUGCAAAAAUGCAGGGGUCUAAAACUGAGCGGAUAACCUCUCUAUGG RNA 2: GGGAAUGGAUCCACAUCUACGAAUUCCCACCAUAGAGAGGUUAUCCGCUCAUGCAGAUCGGAAGAGCACACGU	3.55
target 2 MT 5'PFS UAG 3'PFS CCU (mixed) RNA 1: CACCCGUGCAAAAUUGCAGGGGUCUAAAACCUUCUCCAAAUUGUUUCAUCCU RNA 2: GGGAAUGGAUCCACAUCUACGAAUUCUAGAGGAUGAAACAAUUUGGAGAAGCCUAGAUCGGAAGAGCACACGU	54
